biological target: UniProtKB P08588; experiment: 3H-CGP12177 whole-cell binding, CHO cells expressing human beta1-adrenoceptor; design: expressed in transfected cells; host or cells: CHO cells; details: 3H-CGP 12177 whole cell binding, log KD, mean ± s.e.mean, read-out: Beta 1 Log KD (converted)
Sequence (P08588 whole entry): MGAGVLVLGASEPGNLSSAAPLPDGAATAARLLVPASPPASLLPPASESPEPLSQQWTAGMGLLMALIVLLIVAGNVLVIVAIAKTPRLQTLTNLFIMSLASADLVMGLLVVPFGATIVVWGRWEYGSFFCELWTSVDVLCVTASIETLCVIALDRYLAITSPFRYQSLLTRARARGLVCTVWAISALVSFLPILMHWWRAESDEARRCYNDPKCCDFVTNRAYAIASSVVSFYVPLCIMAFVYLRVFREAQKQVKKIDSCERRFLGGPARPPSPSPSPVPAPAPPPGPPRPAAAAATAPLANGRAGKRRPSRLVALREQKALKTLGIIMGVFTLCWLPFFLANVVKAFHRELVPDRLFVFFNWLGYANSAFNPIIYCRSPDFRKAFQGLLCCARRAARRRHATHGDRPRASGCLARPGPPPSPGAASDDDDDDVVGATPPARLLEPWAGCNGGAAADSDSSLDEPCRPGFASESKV
Where a name gives a salt, the structure may show the parent alone.
EXPERIMENTAL ENDPOINT: log10 Kd (log10 of the value in nM)

| MOLECULE | log10 Kd |
| --- | --- |
| COC(=O)c1cccc(NC(=O)NCCNCC(O)COc2ccc(OCCOC3CCCC3)cc2)c1 (stereo not shown) [47y] | 1.09 |
| NC(=O)c1cc(OCCNCC(O)COc2ccc(OCCOC3CCCC3)cc2)ccc1O (stereo not shown) | -0.11 |
| OC(CNCCOc1cccc(Cl)c1)COc1ccc(OCCOC2CCCC2)cc1 (stereo not shown) [65a] | 1.87 |
| O=C(NCCNCC(O)COc1ccc(OCCOC2CC2)cc1)Nc1ccc(O)cc1 (stereo not shown) [46p] | 1.80 |
| O=C(NCCNCC(O)COc1ccc(OCCOC2CCCC2)cc1)Nc1ccc(O)cc1 (stereo not shown) [47v] | 0.84 |
| O=C(NCCNCC(O)COc1ccc(OCCOC2CCCC2)cc1)Nc1ccc(C(=O)O)cc1 (stereo not shown) [47bb, hydrochloride] | 2.02 |
| O=C(Cc1cccc(Cl)c1)NCCNCC(O)COc1ccc(OCCOC2CCCC2)cc1 (stereo not shown) [62k] | 0.84 |
| O=C(Cc1ccc(O)cc1)NCCNCC(O)COc1ccc(OCCOC2CCCC2)cc1 (stereo not shown) [62v] | 0.73 |
| O=C(Cc1ccccc1O)NCCNCC(O)COc1ccc(OCCOC2CCCC2)cc1 (stereo not shown) [62u] | 1.28 |
| O=C(Cc1ccccc1)NCCNCC(O)COc1ccc(OCCOC2CCCC2)cc1 (stereo not shown) | 0.58 |
| O=C(Cc1ccc(F)cc1)NCCNCC(O)COc1ccc(OCCOC2CCCC2)cc1 (stereo not shown) [62i] | 0.89 |
| O=C(Cc1cccc(O)c1)NCCNCC(O)COc1ccc(OCCOC2CCCC2)cc1 (stereo not shown) [54j] | 0.57 |
| CCCOCCOc1ccc(OCC(O)CNCCNC(=O)Nc2cccc(Cl)c2)cc1 (stereo not shown) [46m] | 1.21 |

---

# reported Kd; entries follow
target: human beta2-adrenoceptor (Homo sapiens); construct: expressed in transfected cells; host or cells: CHO cells; test: 3H-CGP12177 whole-cell binding, CHO cells expressing human beta2-adrenoceptor; settings: 3H-CGP 12177 whole cell binding, log KD, mean ± s.e.mean, read-out: Beta 2 Log KD (converted)
Sequence (P07550 whole entry): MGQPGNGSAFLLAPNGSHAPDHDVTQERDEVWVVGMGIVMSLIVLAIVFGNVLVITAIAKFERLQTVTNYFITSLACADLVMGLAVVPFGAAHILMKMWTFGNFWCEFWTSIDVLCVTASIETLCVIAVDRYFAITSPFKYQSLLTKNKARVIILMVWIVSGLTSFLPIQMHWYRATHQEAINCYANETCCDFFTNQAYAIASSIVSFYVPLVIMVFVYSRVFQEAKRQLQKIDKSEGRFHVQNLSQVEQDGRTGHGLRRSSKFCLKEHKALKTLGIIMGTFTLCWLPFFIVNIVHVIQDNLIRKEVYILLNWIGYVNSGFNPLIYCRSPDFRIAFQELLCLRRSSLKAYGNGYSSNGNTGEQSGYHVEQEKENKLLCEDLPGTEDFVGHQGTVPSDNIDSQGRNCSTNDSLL
EXPERIMENTAL ENDPOINT: Kd (nM)

| COMPOUND | TARGET ENTITY | EXPERIMENTAL ENDPOINT | VALUE MEASURED |
| --- | --- | --- | --- |
| O=C(NCCNCC(O)COc1ccc(OCCOC2CCCC2)cc1)c1ccccc1 (stereo not drawn) [62a] | human beta2-adrenoceptor (Homo sapiens) | Kd | 1150 |
| Nc1cccc(NC(=O)NCCNCC(O)COc2ccc(OCCOC3CCCC3)cc2)c1 (stereo not drawn) [60b] | human beta2-adrenoceptor (Homo sapiens) | Kd | 4170 |
| O=C(Cc1ccc(C(F)(F)F)cc1)NCCNCC(O)COc1ccc(OCCOC2CCCC2)cc1 (stereo not drawn) [62o] | human beta2-adrenoceptor (Homo sapiens) | Kd | 214 |
